The measured values listed here are drawn from patent US20230365684A1.

Quick reference for EC50 among some binders
target: T1, human CD33 on cells (MOLM-13, Kasumi-1, OCI-AML-3, Kasumi-3) (human, UniProt P20138 18-364)
T1 construct: whole, on cells; also called CD33 expressing cells; CD33+ cell lines
T1 sequence (P20138 18-364): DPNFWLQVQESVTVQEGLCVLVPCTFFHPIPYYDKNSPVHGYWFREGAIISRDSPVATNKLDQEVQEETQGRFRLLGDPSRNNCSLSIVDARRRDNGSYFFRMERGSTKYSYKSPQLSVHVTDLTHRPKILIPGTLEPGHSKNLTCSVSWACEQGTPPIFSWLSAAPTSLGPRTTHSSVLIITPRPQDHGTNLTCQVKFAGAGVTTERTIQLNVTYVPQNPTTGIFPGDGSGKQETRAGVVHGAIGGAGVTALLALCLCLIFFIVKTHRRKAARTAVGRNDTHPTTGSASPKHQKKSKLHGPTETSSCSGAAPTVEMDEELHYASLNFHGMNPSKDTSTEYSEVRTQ
protocol: flow cytometry on OCI-AML-3 cells, 4 °C, serial dilutions of the antibody
Give just the number in nM; leave the unit off.

Please review the following examples before continuing.
C33B836.006 (antibody, V domains shown, also called sC33B836.006) VH: QVQLVQSGSELRKPGASVKVSCKASGYTFTNYAMNWVRQAPGQGLEWMGWINTNTGNPTYAQGFTGRFVFSLDTSVSSAYLQISSLKAEDTAMYYCATDRDRGTDYWGQGTLVTVSS VL: QSALTQPASVSGSPGQSITISCTGTSSDVGDYNYVSWYQQHPGKVPKLMIYDVSNRPSGVSNRFSGSMSGNTASLTISGLQAEDEADYYCSSYSSSSALEVFGGGTKLTVL: 0.46
C33B1477 (antibody, V domains shown, also called sCD33B1477) VH: EVQLVESGGGLVQPGGSLKVSCEASGFTFSVSAIHWVRQASGKGLEWIGRIRSKGNSYATAYAASVKGRFTISRDDSKNTAYLQMDSLKTEDTAVYYCTRHNDKWNYYGLDVWGQGTTVTVSS VL: DIVMTQSPLSLPVTPGEPASISCKSSQSLLFSNGYKFLDWYLQRPGQSPQLLIYLGSYRASGVPDRFSGSGSGTDFTLKISRVEAEDVGLYYCMQALQTPPTFGGGTKVEIK: 0.6
C33B1474 (antibody, V domains shown) VH: QVQLVESGGGLVQPGGSLRLSCAASGFTFSSFGMSWVRQAPGKGLEWVANIKRDGSEKYYVDSVKGRFTISRDNAKNSLFLQMSSLRAEDTAVYYCVRDYGYFDFWGQGTLVTVSS VL: DIQMTQSPSSLSASVGDRVTITCQASQAISNYLNWYQQKPGKAPKLLIYDASNLETGVPSRFSGSGSGTDFTFTISSLQPEDFSTYFCQHYDNLPYTFGQGTKLEIK: 1.26
C33B1476 (antibody, V domains shown, also called sCD33B1476) VH: EVQLVESGGGLVQPGGSLKVSCEASGFTFSVSAIHWVRQASGKGLEWIGRIRSKGNSYATAYNVSVKGRFTISRDDSKNTAYLQMDSLKTEDTAVYYCTRHNDKWNYYGLDVWGQGTTVTVSS VL: DIVMTQSPLSLPVTPGEPASISCKSSQSLLFSNGYKFLDWYLQRPGQSPQLLIYLGSYRASGVPDRFSGSGSGTDFTLKISRVEAEDVGLYYCMQALQTPPTFGGGTKVEIK: 0.8

From here, focus on the item given below.
Task: Entry C33B806.006 (antibody, V domains shown) VH: QLQLQESGPGLVKPSETLSLTCTVSGGSISSSSYYWGWIRQPPGKGLDWIGSINYSGSTYYNPSLKSRVTISVDTSKIQFSLKLRSVTAADTAVYYCARLDGYESPFDYWGQGTLVTVSS VL: DIQMTQSPSSVSASVGDRVTITCRASQGISSWLAWYQQKPGKAPKLLIYAASSLQSGVPSRFSGSGSGTDFTLTISSLQPEDFATYYCQQANSFPFTFGPGTKVDIK has what EC50?
Result: 15.3
